# assay.details: Extraction of plasticiser in water from plastisole samples
# Type: physicochemical
# experimental.parameters: plastisol, 50 phr plasticizer, after drying the sample
Please provide measured Extractions by H2O (Weight Difference %) dry for the entries that follow.

compound	result.value
CCCCC(CC)COC(=O)CCCCC(=O)OCC(CC)CCCC (stereo not shown) [DOA, Di-octyladepate]	0.7%
CC(C)CCCCCCOC(=O)c1ccccc1 [INB, Isononyl Benzoate]	0.5%
CCCCC(CC)COC(=O)c1ccc(C(=O)OCC(CC)CCCC)cc1 (stereo not shown) [DOTP, Di-octyltherephthalate]	0.7%

Given CC(C)CCCCCCOC(=O)c1ccccc1C(=O)OCCCCCCC(C)C [DINP, Di-isononylphthalate] , state its recorded Extractions by H2O (Weight Difference %) dry. 0.7%

---

# assay.details: Extraction of plasticiser in water from plastisole samples
# Type: physicochemical
# experimental.parameters: plastisol, 50 phr plasticizer, after 1 day
observation.type: Extractions by H2O (Weight Difference %) 1 d
Answers are plain numbers, in %.

These solved cases illustrate the format of a correct answer.
molecule	result.units	result.value
CCCCC(CC)COC(=O)CCCCC(=O)OCC(CC)CCCC (stereo not shown) [DOA, Di-octyladepate]	%	1
CC(C)CCCCCCOC(=O)c1ccccc1 [INB, Isononyl Benzoate]	%	0.9
CC(C)CCCCCCOC(=O)c1ccccc1C(=O)OCCCCCCC(C)C [DINP, Di-isononylphthalate]	%	0.8

Here's the next entry for you.
Given CCCCC(CC)COC(=O)c1ccc(C(=O)OCC(CC)CCCC)cc1 (stereo not shown) [DOTP, Di-octyltherephthalate] , state its recorded Extractions by H2O (Weight Difference %) 1 d. 0.8

---

Please provide measured Extractions by H2O (Weight Difference %) 7 d for the entries that follow.
# assay.details: Extraction of plasticiser in water from plastisole samples
# Assay type: physicochemical
# experimental.parameters: plastisol, 50 phr plasticizer, after 7 days
Answers are plain numbers, in %.

These solved cases illustrate the format of a correct answer.
compound	result.units	result.value
CCCCC(CC)COC(=O)c1ccc(C(=O)OCC(CC)CCCC)cc1 (stereo not shown) [DOTP, Di-octyltherephthalate]	%	1.7
CC(C)CCCCCCOC(=O)c1ccccc1 [INB, Isononyl Benzoate]	%	1.9
CCCCC(CC)COC(=O)CCCCC(=O)OCC(CC)CCCC (stereo not shown) [DOA, Di-octyladepate]	%	2.1

Here's the next entry for you.
Given CC(C)CCCCCCOC(=O)c1ccccc1C(=O)OCCCCCCC(C)C [DINP, Di-isononylphthalate] , state its recorded Extractions by H2O (Weight Difference %) 7 d. 1.8
